Entries and their pIC50
# System: U87MG tumour cells
# protocol notes: Test of in vitro proliferation of U87MG tumour cells
# Type: cell-based
# conditions: Homo sapiens, U-87 MG, 72 h, U87MG cells, 72 hours; read-out: U87 Cell Proliferation IC50
pIC50: −log10 of the molar value.
property: pIC50

>  <mol>
CCN1CC(C)(C)Oc2nc(N3CC4CCC(C3)O4)nc(-c3ccc(NC(=O)Nc4ccc(N(C)C)cn4)cc3)c2C1=O

>  <property>
pIC50

>  <qualifier symbol>
=

>  <numeric readout>
6.57

$$$$
>  <mol>
CCN1CC(C)(C)Oc2nc(N3CCOC[C@@H]3C)nc(-c3ccc(NC(=O)Nc4ccc(N5CCN(C)CC5)cn4)cc3)c2C1=O

>  <property>
pIC50

>  <qualifier symbol>
=

>  <numeric readout>
6.68

$$$$
>  <mol>
CCN1CC(C)(C)Oc2nc(N3CC4CCC(C3)O4)nc(-c3ccc(NC(=O)Nc4ccnn4C)cc3)c2C1=O

>  <property>
pIC50

>  <qualifier symbol>
=

>  <numeric readout>
5.30

$$$$
>  <mol>
CCN1CC(C)(C)Oc2nc(N3CC4CCC(C3)O4)nc(-c3ccc(NC(=O)NCC4CCOCC4)c(F)c3)c2C1=O

>  <property>
pIC50

>  <qualifier symbol>
<

>  <numeric readout>
5.00

$$$$
>  <mol>
CCN1CC(C)(C)Oc2nc(N3CC4CCC(C3)O4)nc(-c3ccc(NC(=O)Nc4ccc(F)c(OC)c4)c(F)c3)c2C1=O

>  <property>
pIC50

>  <qualifier symbol>
=

>  <numeric readout>
6.48

$$$$
>  <mol>
CCN1CC(C)(C)Oc2nc(N3CCOC[C@@H]3C)nc(-c3ccc(NC(=O)Nc4cnc(C)cn4)c(F)c3)c2C1=O

>  <property>
pIC50

>  <qualifier symbol>
=

>  <numeric readout>
6.30

$$$$
>  <mol>
CCN1CC(C)(C)Oc2nc(N3CCOC[C@@H]3C)nc(-c3ccc(NC(=O)O[C@H]4CCC[C@H]4O)cc3)c2C1=O

>  <property>
pIC50

>  <qualifier symbol>
=

>  <numeric readout>
5.67

$$$$
>  <mol>
CN1CC(C)(C)Oc2nc(N3CC4CCC(C3)O4)nc(-c3ccc(NC(=O)Nc4ccncc4F)cc3)c2C1=O

>  <property>
pIC50

>  <qualifier symbol>
=

>  <numeric readout>
7.11

$$$$
>  <mol>
CCN1CC(C)(C)Oc2nc(N3CC4CCC(C3)O4)nc(-c3ccc(NC(=O)Nc4ccc(N5CCCC5)nc4)c(F)c3)c2C1=O

>  <property>
pIC50

>  <qualifier symbol>
=

>  <numeric readout>
6.94

$$$$
>  <mol>
CCN1CC(C)(C)Oc2nc(N3CC4CCC(C3)O4)nc(-c3ccc(NC(=O)Nc4ccc(OC)nn4)c(F)c3)c2C1=O

>  <property>
pIC50

>  <qualifier symbol>
=

>  <numeric readout>
6.33

$$$$
>  <mol>
CCN1CC(C)(C)Oc2nc(N3CCOC[C@@H]3C)nc(-c3ccc(NC(=O)Nc4ccc(C)nc4)c(F)c3)c2C1=O

>  <property>
pIC50

>  <qualifier symbol>
=

>  <numeric readout>
7.22

$$$$
>  <mol>
CCN1CC(C)(C)Oc2nc(N3C4CCC3COC4)nc(-c3ccc(NC(=O)Nc4ccncc4)c(F)c3)c2C1=O

>  <property>
pIC50

>  <qualifier symbol>
=

>  <numeric readout>
7.92

$$$$
>  <mol>
Cc1ccc(NC(=O)Nc2ccc(-c3nc(N4CC5CCC(C4)O5)nc4c3C(=O)N(C)CC(C)(C)O4)cc2F)cn1

>  <property>
pIC50

>  <qualifier symbol>
=

>  <numeric readout>
7.15

$$$$
>  <mol>
CCN1CC(C)(C)Oc2nc(N3CC4CCC(C3)O4)nc(-c3ccc(NC(=O)Nc4ccon4)c(C)c3)c2C1=O

>  <property>
pIC50

>  <qualifier symbol>
=

>  <numeric readout>
5.38

$$$$
